Data provenance: ChEMBL document CHEMBL1821607

# protocol.text: Displacement of [3H]DTG from sigma 2 receptor in rat liver homogenates in presence of sigma-1 receptor blocker (+)-pentazocine after 120 mins by liquid scintillation counting
# Format: tissue-based
endpoint.label: log10 of Ki (log10 of the value in nM)

| compound | reported.measurement |
| --- | --- |
| Fc1ccc(CN2C3CC4CC(C3)CC2C4)cc1 | 1.95 |
| Fc1ccc(CCN2C3CC4CC(C3)CC2C4)cc1 | 1.53 |
| Fc1cccc(CCN2C3CC4CC(C3)CC2C4)c1 | 1.60 |
| OC12CC3CC(CC(C3)N1Cc1cccc(F)c1)C2 (racemic) | 2.85 |
| COc1cccc(CN2C3CC4CC(C3)CC2C4)c1 | 1.81 |
| OC12CC3CC(CC(C3)N1Cc1ccc(F)cc1)C2 (racemic) | 2.92 |
| COc1ccc(CN2C3CC4CC(C3)CC2(O)C4)cc1 (racemic) | 2.63 |
| COc1cccc(CN2C3CC4CC(C3)CC2(O)C4)c1 (racemic) | 2.55 |
| Fc1cccc(CN2C3CC4CC(C3)CC2C4)c1 | 2.12 |
| OC12CC3CC(CC(C3)N1CCc1ccc(F)cc1)C2 (racemic) | 2.30 |
| OC12CC3CC(CC(C3)N1CCc1cccc(F)c1)C2 (racemic) | 2.40 |
| COc1ccc(CN2C3CC4CC(C3)CC2C4)cc1 | 1.73 |
| OC12CC3CC(CC(C3)N1Cc1ccccc1)C2 (racemic) | 3.01 |
| c1ccc(CN2C3CC4CC(C3)CC2C4)cc1 | 1.98 |
